# systemUnderTest: human GLP-1 receptor (human, UniProt P43220 24-463)
# protocolDetails: cell-based or functional assay
Starred links: 1 amine or outer side, 2 acyl side, 3 side chain; linkers in the order of their positions; H or OH if unused. Non-standard residues stand in square brackets, D forms with d. Groups on a side chain read outwards from the residue. No end group written: not given here. *: point of attachment. C18 diacid = O=C(O)CCCCCCCCCCCCCCCCC(=O)*; γGlu = O=C(O)[C@H](CCC(=O)[*:2])N[*:1]; εLys = N[C@@H](CCCCN[*:1])C(=O)[*:2]; Aib = CC(C)(N)C(=O)O
measuredEndpoint: EC50 CreLuc hGLP1R 100% hP

binder | EC50 CreLuc hGLP1R 100% hP
Y[Aib]EGTFTSDYSI[Aib]LEKQAQ[Aib]AFVQWLIKGGPSSGASLRHYYNWLTRQRY-NH2 (not fully specified (residue 28)) [Compound 147] | 1.54 nM

Then there is this binder:
[in] Output measured EC50 CreLuc hGLP1R 100% hP for this item: Y[Aib]EGTFTSDYSI[Aib]LEKQAQ[Aib]EFVEWLIK([εLys-γGlu-γGlu-γGlu-γGlu-γGlu-C18 diacid])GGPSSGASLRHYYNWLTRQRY-NH2 [Compound 159]
[out] 5.17 nM
